Data provenance is patent US20200268716A1.

Test system: Acanthamoeba polyphaga (A. polyphaga)
Run description: Growth inhibition of Acanthamoeba polyphaga by solid luliconazole crystals (1 mg added to culture)
Assay type: cell-based
Details: 1 mg of solid crystals added after 48 hours preculture; 25° C., 72 hours
Kind request: treat 70% as inclusive, so Growth Inhibition Rate (%) at 70% or higher is YES, anything lower is NO.

# example entries with known answers
N#C/C(=C1/SC[C@@H](c2ccc(Cl)cc2Cl)S1)n1ccnc1 [Crystal in Example 3, luliconazole]	NO
N#C/C(=C1/SC[C@@H](c2ccc(Cl)cc2Cl)S1)n1ccnc1 [Crystal in Example 6, luliconazole]	NO

Is Growth Inhibition Rate (%) for N#C/C(=C1/SC[C@@H](c2ccc(Cl)cc2Cl)S1)n1ccnc1 [Crystal in Example 2, luliconazole] at or above 70%?
NO

Is Growth Inhibition Rate (%) for N#C/C(=C1/SC[C@@H](c2ccc(Cl)cc2Cl)S1)n1ccnc1 [Crystal in Example 5, luliconazole] at or above 70%?
YES
